Ki data for 5-hydroxytryptamine receptor 1D (Canis lupus familiaris) follow.
One number for each entry, in µM.

COMPOUND	MEASURED ON	Ki, µM
O=C(CCCN1CCC2(CC1)C(=O)NCN2c1ccccc1)c1ccc(F)cc1	5-hydroxytryptamine receptor 1D (Canis lupus familiaris)	1
COc1ccc2[nH]cc(CCN(C)C)c2c1	5-hydroxytryptamine receptor 1D (Canis lupus familiaris)	0.00512
CCN(CC)C(=O)[C@@H]1C=C2c3cccc4[nH]cc(c34)C[C@H]2N(C)C1	5-hydroxytryptamine receptor 1D (Canis lupus familiaris)	0.0126
NCCc1c[nH]c2ccc(O)cc12 [[3H]-5-HT]	5-hydroxytryptamine receptor 1D (Canis lupus familiaris)	0.0158
COc1ccc2[nH]cc(C3=CCNCC3)c2c1	5-hydroxytryptamine receptor 1D (Canis lupus familiaris)	0.0631
CCC(=O)c1ccc(N)cc1	5-hydroxytryptamine receptor 1D (Canis lupus familiaris)	0.0347

Hey, quick one: what's Ki for each of these?
1. COC(=O)[C@@H]1[C@H]2C[C@H]3c4[nH]c5ccccc5c4CCN3C[C@@H]2CC[C@@H]1O
2. CN1C[C@H](C(=O)N[C@]2(C)O[C@@]3(O)[C@@H]4CCCN4C(=O)[C@H](Cc4ccccc4)N3C2=O)C=C2c3cccc4[nH]cc(c34)C[C@H]21

[0.00524, 0.00194]

* * *

So I've got a bunch of compounds here, and I need their Ki values.
molecular target: UniProt P30966
Sequence (P30966 whole entry): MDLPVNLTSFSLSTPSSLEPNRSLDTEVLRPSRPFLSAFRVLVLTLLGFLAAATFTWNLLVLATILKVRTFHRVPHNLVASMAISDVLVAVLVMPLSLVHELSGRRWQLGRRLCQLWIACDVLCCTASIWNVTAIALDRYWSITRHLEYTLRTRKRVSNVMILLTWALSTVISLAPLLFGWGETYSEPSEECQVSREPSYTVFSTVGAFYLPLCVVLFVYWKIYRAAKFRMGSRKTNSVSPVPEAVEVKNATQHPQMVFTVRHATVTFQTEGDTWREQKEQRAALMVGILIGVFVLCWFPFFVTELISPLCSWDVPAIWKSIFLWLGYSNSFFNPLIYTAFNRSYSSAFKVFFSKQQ
One number for each entry, in nM.

Example compounds with recorded Ki:
COMPOUND	Ki (nM)
CC[C@@H](CO)NC(=O)[C@@H]1C=C2c3cccc4c3c(cn4C)C[C@H]2N(C)C1	79.4
CN1C[C@H](C(=O)N[C@]2(C)O[C@@]3(O)[C@@H]4CCCN4C(=O)[C@H](Cc4ccccc4)N3C2=O)C=C2c3cccc4[nH]cc(c34)C[C@H]21	6.3
CCCN(CCC)C1CCc2cccc(O)c2C1 (stereo not given)	1580

Turning now to a further compound:
Known value: UniProt P30966 Ki of the compound CSc1ccc2c(c1)C(N1CCN(C)CC1)Cc1ccccc1S2 (stereo not given) equals 126

* * *

Entries with reported pKi on UniProtKB P35365
Sequence (P35365 whole entry): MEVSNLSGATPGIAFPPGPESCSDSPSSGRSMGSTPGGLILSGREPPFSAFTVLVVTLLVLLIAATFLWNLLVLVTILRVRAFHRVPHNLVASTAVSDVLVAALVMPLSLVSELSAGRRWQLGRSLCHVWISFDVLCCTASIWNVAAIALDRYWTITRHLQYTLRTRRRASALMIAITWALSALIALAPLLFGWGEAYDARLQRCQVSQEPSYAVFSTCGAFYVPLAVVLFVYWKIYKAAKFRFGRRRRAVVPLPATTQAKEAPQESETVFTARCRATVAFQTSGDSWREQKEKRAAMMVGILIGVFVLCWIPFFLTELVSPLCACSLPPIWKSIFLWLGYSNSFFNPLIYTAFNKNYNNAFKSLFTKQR
Numbers only, as −log10 of the molar value.

CN1C[C@H](C(=O)N[C@]2(C)O[C@@]3(O)[C@@H]4CCCN4C(=O)[C@H](Cc4ccccc4)N3C2=O)C=C2c3cccc4[nH]cc(c34)C[C@H]21 7.80

API: the following record is the query input.
CC[C@@H](CO)NC(=O)[C@@H]1C=C2c3cccc4c3c(cn4C)C[C@H]2N(C)C1 yielded pKi of 6.00

* * *

target: 5-hydroxytryptamine receptor 7 (Mus musculus, UniProt P32304)
Sequence (P32304 whole entry): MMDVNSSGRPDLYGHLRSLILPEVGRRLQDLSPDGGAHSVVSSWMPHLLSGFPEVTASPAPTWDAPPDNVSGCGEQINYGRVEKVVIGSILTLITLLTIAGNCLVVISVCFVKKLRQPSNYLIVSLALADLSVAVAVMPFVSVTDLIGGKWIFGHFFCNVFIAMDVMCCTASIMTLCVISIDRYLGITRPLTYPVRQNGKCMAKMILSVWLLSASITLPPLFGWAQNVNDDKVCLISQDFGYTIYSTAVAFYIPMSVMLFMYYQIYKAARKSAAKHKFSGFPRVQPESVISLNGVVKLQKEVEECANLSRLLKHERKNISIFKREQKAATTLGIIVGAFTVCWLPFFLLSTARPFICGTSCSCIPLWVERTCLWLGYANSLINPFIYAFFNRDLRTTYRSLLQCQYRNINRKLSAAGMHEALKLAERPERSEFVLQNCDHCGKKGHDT
Flag rule - Ki less than 0.03 µM flags Yes; the remaining entries get No.

Illustrative cases are given below, each with its answer.
COMPOUND	CLASS NAME
CN1C[C@@H](NS(=O)(=O)N(C)C)C[C@@H]2c3cccc4c3c(cn4C)C[C@H]21	Yes
CCCN(CCC)C1CCc2cccc(O)c2C1 (stereo not drawn)	No

Item CC(C)(C)[C@]1(O)CCN2C[C@H]3c4ccccc4CCc4cccc(c43)[C@@H]2C1 : Ki beneath 0.03 µM, strictly? No

For this compound, is Ki lower than 0.03 µM? CC(C)C[C@H]1C(=O)N2CCC[C@H]2[C@]2(O)O[C@](NC(=O)[C@@H]3C=C4c5cccc6[nH]c(Br)c(c56)C[C@H]4N(C)C3)(C(C)C)C(=O)N12 No

Consider the compound NCCc1c[nH]c2ccc(C(N)=O)cc12 [[3H]-5-carboxamidotryptamine] . Is its Ki strictly less than 0.03 µM? Yes

For this compound, is Ki lower than 0.03 µM? O=C(CCCN1CCC2(CC1)C(=O)NCN2c1ccccc1)c1ccc(F)cc1 No

Does this compound meet the criterion Ki < 0.03 µM? CC[C@@H](CO)NC(=O)[C@@H]1C=C2c3cccc4c3c(cn4C)C[C@H]2N(C)C1 Yes

Say whether its Ki is strictly beneath 0.03 µM. Entry: CN1C[C@H](CNC(=O)OCc2ccccc2)C[C@@H]2c3cccc4c3c(cn4C)C[C@H]21 No

Problem: For the compound CN1C[C@H](C(=O)N[C@]2(C)O[C@@]3(O)[C@@H]4CCCN4C(=O)[C@H](Cc4ccccc4)N3C2=O)C=C2c3cccc4[nH]cc(c34)C[C@H]21 , is Ki under 0.03 µM? No

Is it true that Ki reported for CN1CCN2c3ccccc3Cc3ccccc3[C@H]2C1 [MIANSERIN (+)] is less than 0.03 µM? No

Item CN(C)CCCN1c2ccccc2Sc2ccc(Cl)cc21 : Ki beneath 0.03 µM, strictly? No

Bench note: check whether NCCc1c[nH]c2ccc(O)cc12 [[3H]-5-HT] shows Ki below 0.03 µM Yes

Does CCN(CC)C(=O)[C@@H]1C=C2c3cccc4[nH]c(Br)c(c34)C[C@H]2N(C)C1 have Ki strictly under 0.03 µM? Yes

Reference source: BindingDB's records for doi:10.1016/0028-3908(94)90059-0
